Hello, the source for this data is PubChem BioAssay (NCATS), in case you need it.

Test system: HeLa
Assay: Primary qHTS to identify gynecologic anti-cancer compounds using libraries of approved drugs and bioactive compounds (AID 1345084); further: on the % scale 0 is the no-effect control and ±100 the full control effect; nearly all actives have a fitted effect of over 55% in size
Conditions: Gynecologic cancer cell panel viability, ATPlite luminescence, 48 h; series mostly up to 57.5 µM
Description: National Center for Advancing Translational Sciences [NCATS] Assay Overview: Chemotherapeutic drug responses vary from cancer to cancer and from patient to patient. […] ATPlite is a luminescence based assay reliant on the conversion of a luciferase substrate to light in the presence of ATP. As a cytotoxic compound will suppress growth and decrease the number of cells, the concentration of ATP will decrease, and less light signal will be detected in the well. […]
Results filed as inconclusive are left out. Active and inactive are the calls of the source. The call rests on the fitted dose curve; in most records, active means well fitted cell-killing curve with a large enough effect; inconclusive means small, poorly fitted or top-dose-only effect, or effect the other way; inactive means flat fitted curve, though single readings scatter. Where a SMILES comes first, the peptide text is derived from it. The star is where a group is joined. Cbz = O=C(OCc1ccccc1)*; CH2F = FC*
Parameter: activity change, negative = cytotoxicity

The following compounds have reported results that may help.
[[record]]
compound = "CCOC(=O)C(CCc1ccccc1)NC1CCCN2CCCC(C(=O)O)N2C1=O (stereo not drawn)"
result = "inactive"

[[record]]
compound = "CCC1=C(C)C(=O)C(C)CC12C(=O)CCC2C(=O)O (stereo not drawn)"
result = "inactive"

[[record]]
compound = "COC(=O)CC[C@H](NC(=O)[C@H](CC(C)C)NC(=O)OCc1ccccc1)C(=O)N[C@@H](Cc1cnc[nH]1)C(=O)N[C@@H](CC(=O)OC)C(=O)CF (Cbz-LE(OMe)HD(OMe)-CH2F)"
result = "6.25% [at 11.6 µM] (inactive)"

[[record]]
compound = "COc1cc(/C=C/c2ccccc2)c(C(=O)O)c(O)c1CC=C(C)C"
result = "inactive"

[[record]]
compound = "C/C=C(\\C)C(=O)OC1C(C)C2(O)C3C=C(C)C(=O)C3CC(CO)=CC2C2C(C)(C)C12OC(C)=O (stereo not drawn)"
result = "inactive"

[[record]]
compound = "O=C(O)C(Cc1ccccc1)NC(=O)C1CCCN1 (stereo not drawn) (H-Pro-Phe-OH; configuration not given here)"
result = "inactive"

[[record]]
compound = "CC1=C2C(=O)C=C(CO[C@@H]3O[C@H](CO)[C@@H](O)[C@H](O)[C@H]3O)[C@@H]2[C@H]2OC(=O)[C@H](C)[C@@H]2[C@@H](O)C1"
result = "inactive"

[[record]]
compound = "COc1c2c(c(C)c3c1C(=O)OC3)OC1(C)CC(O)C34OC(O)(CCC3(C)C1C2)OC4(C)C (stereo not drawn)"
result = "inactive"


Ask: Field: activity change, negative = cytotoxicity (HeLa). Entry: N=C(N)c1ccc2nc(-c3cc(CC(=O)NC(CC(=O)O)C(=O)O)cc(-c4cc(S(N)(=O)=O)ccc4O)c3O)[nH]c2c1 (stereo not drawn)
Reply: inactive

Ask: Field: activity change, negative = cytotoxicity (HeLa). Entry: CCCCCOC(=O)Nc1nc(=O)n(C2O[C@H](C)[C@@H](O)[C@H]2O)cc1F (stereo partly drawn)
Reply: inactive

---

System: Es-2
Assay: Primary qHTS to identify gynecologic anti-cancer compounds using libraries of approved drugs and bioactive compounds (AID 1345084); further: on the % scale 0 is the no-effect control and ±100 the full control effect; nearly all actives have a fitted effect of over 55% in size
Conditions: Gynecologic cancer cell panel viability, ATPlite luminescence, 48 h; series mostly up to 57.5 µM
Results filed as inconclusive are left out. Active and inactive are the calls of the source. Calls follow the shape of the dose curve; as a rule, active = well fitted cell-killing curve with a large enough effect; inconclusive = small, poorly fitted or top-dose-only effect, or effect the other way; inactive = flat fitted curve, though single readings scatter.
Parameter: activity change, negative = cytotoxicity

The following compounds have reported results that may help.
[[record]]
compound = "O=C(O)Cc1cn([C@@H]2O[C@H](CO)[C@@H](O)[C@H](O)[C@H]2O[C@@H]2O[C@H](CO)[C@@H](O)[C@H](O)[C@H]2O)c2ccccc12"
result = "inactive"

[[record]]
compound = "CC1(C)C2CC[C@]3(C)C(C(=O)C=C4[C@H]5C[C@@](C)(C(=O)O)CC[C@]5(C)CC[C@]43C)[C@@]2(C)CC[C@@H]1O (stereo not given in full)"
result = "inactive"

[[record]]
compound = "CC(=O)OC1C(O)/C(C)=C\\C2C(OC(=O)c3ccccc3)C(C)CC2(OC(C)=O)C(OC(C)=O)C(C)/C=C/C(C)(C)C1OC(C)=O (stereo not given)"
result = "inactive"

[[record]]
compound = "Cc1occc(=O)c1O[C@@H]1O[C@H](COC(=O)CC(C)(O)CC(=O)O)[C@@H](O)[C@H](O)[C@H]1O (stereo not given in full)"
result = "inactive"


Ask: Requested read-out: activity change, negative = cytotoxicity. Entry: C/C=C(\C)C(=O)OC[C@H]1O[C@@H](O[C@H]2[C@@H](O[C@H]3O[C@H](COC(=O)/C(C)=C/C)[C@@H](O)[C@H](O)[C@H]3O[C@@H]3O[C@H](COC(=O)/C(C)=C/C)[C@@H](O)[C@H](OC(=O)/C(C)=C/C)[C@H]3O)O[C@H](COC(=O)/C(C)=C/C)[C@@H](O)[C@@H]2O)[C@H](O)[C@@H](O)[C@@H]1O
Reply: 2.21% [at 11.6 µM] (inactive)

---

Test system: HeLa
Assay: Primary qHTS to identify gynecologic anti-cancer compounds using libraries of approved drugs and bioactive compounds (AID 1345084); further: on the % scale 0 is the no-effect control and ±100 the full control effect; nearly all actives have a fitted effect of over 55% in size
Conditions: Gynecologic cancer cell panel viability, ATPlite luminescence, 48 h; series mostly up to 57.5 µM
Results filed as inconclusive are left out. Activity calls are given as the source filed them. The call rests on the fitted dose curve; in most records, active means well fitted cell-killing curve with a large enough effect; inconclusive means small, poorly fitted or top-dose-only effect, or effect the other way; inactive means flat fitted curve, though single readings scatter.
Parameter: activity change, negative = cytotoxicity

[[record]]
molecule = "CC(C)(O)C1CC=C(C(=O)OC[C@H]2O[C@@H](Oc3cc(C(=O)O)cc(O)c3O)[C@H](O)[C@@H](O)[C@@H]2O)CC1 (stereo partly drawn)"
result = "inactive"

[[record]]
molecule = "CC1OC(OC2C(OC3C(O[C@H]4CC[C@@]5(C)C(CC[C@]6(C)C5C(=O)CC5=C7CC(C)(C)CC(O)[C@]7(C)CC[C@]56C)C4(C)C)OC(C(=O)O)C(O)C3O)OCC(O)C2O)C(O)C(O)C1O (stereo partly drawn)"
result = "0.531% [at 11.6 µM] (inactive)"

[[record]]
molecule = "CC1CCC2(C)CCC3(C)C(=CCC4C5(C)CCC(O)C(C)(C(=O)O)C5CCC43C)C2C1C (stereo not drawn)"
result = "inactive"


---

Test system: HACAT
Assay: qHTS assay to identify novel small-molecules to repurpose for Merkel cell carcinoma treatment (AID 1296009); further: nearly all actives have a fitted effect of over 60% in size
Conditions: MCC and control cell lines, CellTiter-Glo viability, 72 h; at 44.8 µM (top of the series) unless noted
Inconclusive results are not listed. Active and inactive are the calls of the source. The call rests on the fitted dose curve; in most records, active means well fitted inhibition curve with a large enough effect; inconclusive means small, poorly fitted or top-dose-only effect; inactive means flat fitted curve, though single readings scatter.
Parameter: outcome

[[record]]
molecule = "COc1cc(C2Oc3c(OC)cc(/C=C/C(=O)OC4CC(O)(C(=O)O)CC(O)C4O)cc3C2CO)ccc1O (stereo unspecified)"
parameter = "outcome"
result = "inactive [at 17.4 µM]"

[[record]]
molecule = "CC1=C(CO)CC(C(C)C2CCC3C4CC=C5CC(OC6OC(COC7OC(CO)C(O)C(O)C7O)C(O)C(O)C6O)CC(O)C5(C)C4CCC23C)OC1=O (stereo unspecified)"
parameter = "outcome"
result = "inactive [at 17.4 µM]"

[[record]]
molecule = "CCC12CCCN3CCc4c(n(c5ccccc45)C(O)C1)C32 (stereo unspecified)"
parameter = "outcome"
result = "inactive"

[[record]]
molecule = "CC1(C)CC(NC(=O)C(=O)Nc2ccc(Cl)cc2)CC(C)(C)N1"
parameter = "outcome"
result = "inactive"

[[record]]
molecule = "C=C1CCC[C@]2(C)CC[C@@](O)(C(=C)C(=O)O)C[C@@H]12"
parameter = "outcome"
result = "inactive"

[[record]]
molecule = "Cc1oc(S(=O)(=O)N2CCCCC2)cc1NC(=O)Nc1ccccc1"
parameter = "outcome"
result = "inactive"

[[record]]
molecule = "C[C@H](O)C(O)(C(=O)OCc1ccccc1NC(=O)CCC(N)C(=O)O)[C@H](C)O (stereo partly specified)"
parameter = "outcome"
result = "inactive [at 17.4 µM]"

[[record]]
molecule = "C[C@@H]1O[C@@H](O[C@H]2[C@@H]3C=CO[C@@H](O[C@@H]4O[C@H](CO)[C@@H](O)[C@H](O)[C@H]4O)[C@@H]3[C@@]3(CO)O[C@@H]23)[C@H](O)[C@H](O)[C@H]1OC(=O)/C=C/c1ccc(O)cc1"
parameter = "outcome"
result = "inactive [at 17.4 µM]"


Ask: Requested read-out: outcome. Entry: C[C@@H]1O[C@@H](O[C@H]2[C@H](O)[C@@H](O[C@@H]3O[C@H](CO)[C@H](O)[C@H](O)[C@H]3O)[C@H](O[C@H]3CC[C@@]4(C)C(CC[C@]5(C)C4CC=C4[C@@H]6CC(C)(C)CC[C@]6(C(=O)O[C@@H]6O[C@H](CO)[C@@H](O)[C@H](O)[C@H]6O)CC[C@]45C)C3(C)C)O[C@@H]2C(=O)O)[C@H](O)[C@H](O)[C@H]1O (stereo partly specified)
Reply: inactive [at 9.27 µM]

Ask: Requested read-out: outcome. Entry: COc1cc(OC)cc(-c2ccc3c(-c4ccc(F)cc4)[nH]nc3n2)c1
Reply: inactive

Ask: Requested read-out: outcome. Entry: CC(=O)O[C@@H](C[C@@H]1C=C(C)C(=O)O1)[C@H](C)[C@H]1CCC2[C@@]3(C)CC[C@H](O[C@@H]4O[C@H](CO)[C@@H](O)[C@H](O)[C@H]4O[C@@H]4O[C@@H](C)[C@H](O)[C@@H](O)[C@H]4O)C(C)(C)C3CC[C@@]2(C)[C@@]12COC(=O)C2 (stereo partly specified)
Reply: inactive [at 9.27 µM]

Ask: Requested read-out: outcome. Entry: NC(=O)C(O[C@@H]1O[C@H](CO[C@@H]2O[C@H](CO)[C@@H](O)[C@H](O)[C@H]2O)[C@@H](O)[C@H](O)[C@H]1O)c1ccccc1 (stereo partly specified)
Reply: inactive [at 17.4 µM]
